# Measurement Description: Aqueous solubility, equilibrated 24 hour suspension of the salt in water, HPLC
# Type: physicochemical
# Conditions Used: pH measured at saturation in water
Where a name gives a salt, the structure may show the parent alone.

{"columns": ["Molecule", "pH"],
 "data": [
  ["CN1CCN(C(=O)O[C@H]2c3nccnc3C(=O)N2c2ccc(Cl)cn2)CC1 [Mesylate, (S)-Zopiclone Mesylate]", 4.9],
  ["CN1CCN(C(=O)O[C@H]2c3nccnc3C(=O)N2c2ccc(Cl)cn2)CC1 [D-Malate, (S)-Zopiclone D-Malate]", 4.0],
  ["CN1CCN(C(=O)OC2c3nccnc3C(=O)N2c2ccc(Cl)cn2)CC1 (stereo in doubt) [(R)-Mandelate, (S)-Zopiclone (R)-Mandelate]", 5.1],
  ["CN1CCN(C(=O)O[C@H]2c3nccnc3C(=O)N2c2ccc(Cl)cn2)CC1 [Free base, reference compound]", 7.6]
]}
